# Assayed system: T1, human GIPR (human), P48546
# T1 chain: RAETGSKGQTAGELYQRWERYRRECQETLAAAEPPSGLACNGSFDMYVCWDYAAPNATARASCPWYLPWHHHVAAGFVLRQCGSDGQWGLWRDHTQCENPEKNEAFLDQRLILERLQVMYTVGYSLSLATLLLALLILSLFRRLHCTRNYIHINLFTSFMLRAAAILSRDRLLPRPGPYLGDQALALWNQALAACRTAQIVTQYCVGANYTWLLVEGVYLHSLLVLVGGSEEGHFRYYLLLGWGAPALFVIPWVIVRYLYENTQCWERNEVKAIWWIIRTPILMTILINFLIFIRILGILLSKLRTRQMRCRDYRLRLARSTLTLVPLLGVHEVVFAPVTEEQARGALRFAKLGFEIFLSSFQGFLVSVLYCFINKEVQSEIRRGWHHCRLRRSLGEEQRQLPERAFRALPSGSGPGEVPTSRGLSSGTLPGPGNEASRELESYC
Non-standard residues stand in square brackets, D forms with d. No end group written: not given here. NMeY = CN[C@@H](Cc1ccc(O)cc1)C(=O)O; αMeF = C[C@](N)(Cc1ccccc1)C(=O)O; dIva = CC[C@@](C)(N)C(=O)O; Aib = CC(C)(N)C(=O)O
I'd be grateful if you could share measured Agonist activity (EC50, M) for these entries.
State the value with its unit after it.

Request: So what's the measured Agonist activity (EC50, M) for this one? [NMeY][Aib]EGTFISDYSI[dIva]LDRIAQQSFVNWLLAQRPSSGAPPPSR (not fully specified (N-terminus, C-terminus); ends and bridges not checked) [Compound 138]
Result: 2.2e-12 M

Request: Next entry: [NMeY][Aib]EGTFISDYSIALDRIAQQS[αMeF]VNWLLAQRPSSGAPPPSR (not fully specified (C-terminus); ends and bridges not checked) [Compound 71]
Result: 2.5e-12 M
